The measured values listed here are drawn from paper PMC9270183.

TARGET UNDER TEST: T1, 417N/484K/501Y RBD mutant (SARS-CoV-2, Wuhan-Hu-1 RBD backbone …, 417N | 484K | 501Y)
T1 construct: also called RBD KEN
EXPERIMENTAL DETAILS: BLI
RUN PARAMETERS: both partners purified
pKd reference
Reminder that pKd is minus the log10 of a molar concentration.

# input binder: V004 (antibody, V domains shown, IgG; donor BRA13; source: recombinant monoclonal IgG, produced and purified as previously described) VH: QVQLQESGPGLVKPSQTLSLTCTVSGGSISSGSYYWSWIRQPAGKGLEWIGRIYTSGSTNYNPSLKSRVTISVDTSKNQFSLKLSSVTAADTAVYYCARDTTDDYYVIWGQGTLVTVSS VL: DIQMTQSPSTLSASVGDRVTITCRASQSIRSWLAWYQQKPGKAPKLLIYDASSLESGVPSRFSGSGSGTEFTLTISSLQPDDFATYYCQQYNTHFRTFGQGTKVEIK ; wanted: its pKd
8.54

# input binder: V046 (antibody, V domains shown, IgG; donor BRA15; source: recombinant monoclonal IgG, produced and purified as previously described) VH: EVQLVESGGGLVQPGRSLRLSCAASGFTFEDYAMHWVRQAPGKGLEWVSGVSWNSGTIGYADSVKGRFIISRDNAKNSLYLQMNSLRAEDTALYYCANLGPTYYDFSRPTPMDVWGKGTTVTVSS VL: QSALTQPASVSGSPGQSITISCTGTSSDVGGYNYVSWYQQHPGKAPKLIIYDVSNRPSGVSNRFSGSKSGNTASLTISGLQAEDEADYYCSSYTSSSTWVFGGGTKLTVL ; wanted: its pKd
8.54

# input binder: V043 (antibody, V domains shown, IgG; donor BRA15; source: recombinant monoclonal IgG, produced and purified as previously described) VH: QLQLQESGPGLVKPSETLSLTCTVSGGSISSNNYYWGWIRQPPGKGLECIGTIYYSGNTYYNPSLKSRVTISVDTSKNQFSLKLGSVTAADTAVYYCARQQWLRDAFHIWGQGTMVTVSS VL: NFMLTQPHSVSESPGKTVTISCTGSSGSIASNYVQWYQQRPGSAPTIVIYEDNQRPSGVPDRFSGSIDSSSNSASLTISGLKTEDEADYYCQSYDSNIHVVFGGGTKLTVL ; wanted: its pKd
8.40
